# PROTOCOL NOTES: qHTS for Inhibitors of human tyrosyl-DNA phosphodiesterase 1 (TDP1): qHTS in cells in absence of CPT; further: nearly all actives have a fitted effect of over 55% in size
# CONDITION SET: DT40 Tdp1-/- hTDP1 cells, no CPT, ATP luminescence, 48 h
Out of some 420,000 compounds screened, about 64,000 (15%) were called active. Inconclusive results (about 27%) are left out. The call rests on the fitted dose curve; in most records, active means well fitted inhibition curve with a large enough effect; inconclusive means small, poorly fitted or top-dose-only effect; inactive means flat fitted curve, though single readings scatter. A selection follows.
Log the outcome using a class from TRUE for active, FALSE for inactive

# count of solved cases: 5
{"TEST SMILES": "CCOC(=O)c1cccc(NC(=O)CCc2c(C)nc3ncnn3c2C)c1", "CLASSIFICATION": "FALSE"}
{"TEST SMILES": "COc1cc(OC)cc(-c2nc3nc(C)c(CCC(=O)Nc4ccc(C)cc4)c(C)n3n2)c1", "CLASSIFICATION": "FALSE"}
{"TEST SMILES": "Cc1nn(C)cc1C(=O)NNC(=S)Nc1ccc(Cl)cc1", "CLASSIFICATION": "FALSE"}
{"TEST SMILES": "COc1cc(OC)cc(-c2nc3nc(C)c(CCC(=O)Nc4ccccc4)c(C)n3n2)c1", "CLASSIFICATION": "TRUE"}
{"TEST SMILES": "CC(C)OC(=O)Cn1nc(C(F)(F)F)c2c1CCCC2", "CLASSIFICATION": "FALSE"}

Now consider a different molecule.
Ask: Could you check what this test reported for "CC(=O)Oc1ccc(C(=O)Nc2nccs2)cc1" ?
Reply: FALSE

* * *

# PROTOCOL NOTES: qHTS for Inhibitors of human tyrosyl-DNA phosphodiesterase 1 (TDP1): qHTS in cells in absence of CPT; further: nearly all actives have a fitted effect of over 55% in size
# CONDITION SET: DT40 Tdp1-/- hTDP1 cells, no CPT, ATP luminescence, 48 h
About 64,000 (15%) of roughly 420,000 compounds were called active. Inconclusive results (about 27%) are left out. The call rests on the fitted dose curve; in most records, active means well fitted inhibition curve with a large enough effect; inconclusive means small, poorly fitted or top-dose-only effect; inactive means flat fitted curve, though single readings scatter. These entries were drawn from the full list.
Log the outcome using a class from 1 for active, -1 for inactive

{"MOLECULE": "Cc1[nH]n(C(N)=S)c(=O)c1N=Nc1ccc(Cl)cc1Cl", "CLASSIFICATION": -1}

Ask: Could you check what this test reported for "CCOC(=O)C1CCN(C(=O)Nc2ccc(C)c(Cl)c2)CC1" ?
Reply: -1

Ask: Could you check what this test reported for "COC(=O)COc1ccc(S(=O)(=O)Nc2ccc(NC(C)=O)cc2)cc1" ?
Reply: -1

Ask: Could you check what this test reported for "CN(CC(=O)NCc1ccncc1)S(=O)(=O)c1ccc(Br)cc1" ?
Reply: -1

Ask: Could you check what this test reported for "O=C(COC(=O)c1ccc(F)cc1F)Nc1ncccn1" ?
Reply: -1

Ask: Could you check what this test reported for "c1ccc(-c2ccnc3nc(-n4cccc4)nn23)cc1" ?
Reply: -1

Ask: Could you check what this test reported for COC(C(=O)NCc1ccccc1C)c1ccccc1 (stereo not given) ?
Reply: -1

Ask: Could you check what this test reported for "C=CCOc1c(Br)cc(/C=N\n2nnnc2N)cc1OC" ?
Reply: -1

Ask: Could you check what this test reported for CCCNC(=O)C1(C)CCCN(Cc2cccc(C(F)(F)F)c2)C1 (stereo not given) ?
Reply: 1

Ask: Could you check what this test reported for CCCNC(=O)C1(C)CCN(C(=O)c2ccccc2OC(F)(F)F)C1 (stereo not given) ?
Reply: -1

Ask: Could you check what this test reported for "O=C(Nc1ccc(C(=O)O)cc1)/C(=C\c1ccccc1)NC(=O)c1ccc(Br)cc1" ?
Reply: -1

Ask: Could you check what this test reported for CCCNC(=O)C1(C)CCN(C(=O)c2cc(F)ccc2C)C1 (stereo not given) ?
Reply: -1

Ask: Could you check what this test reported for "Cc1cccc(C(=O)O)c1[N+](=O)[O-]" ?
Reply: -1

Ask: Could you check what this test reported for "Cc1cc(NC(=O)Nc2ccc(Cl)cc2)n(-c2ccccc2)n1" ?
Reply: -1

Ask: Could you check what this test reported for CCOC(=O)C1C(=O)NC(N2CCN(c3ccccc3)CC2)=NC1c1ccco1 (stereo not given) ?
Reply: -1

Ask: Could you check what this test reported for "CCCCOc1ccc(C(=O)NN2CCN(C)CC2)cc1" ?
Reply: -1

Ask: Could you check what this test reported for "O=C(CN1CCN(S(=O)(=O)c2ccc(Cl)s2)CC1)NCc1ccc(Cl)cc1" ?
Reply: -1

Ask: Could you check what this test reported for "CC(=O)Nc1ccc(S(=O)(=O)Nc2ccc(N3CCOCC3)c(F)c2)cc1" ?
Reply: -1

Ask: Could you check what this test reported for "O=C(O)CCC(=O)Nc1ccc(N2CCOCC2)cc1" ?
Reply: -1

* * *

# PROTOCOL NOTES: qHTS for Inhibitors of human tyrosyl-DNA phosphodiesterase 1 (TDP1): qHTS in cells in absence of CPT; further: nearly all actives have a fitted effect of over 55% in size
# CONDITION SET: DT40 Tdp1-/- hTDP1 cells, no CPT, ATP luminescence, 48 h
In all, about 420,000 compounds went through this assay and about 64,000 (15%) were called active. About 27% were inconclusive and are not listed. Calls follow the shape of the dose curve; as a rule, active = well fitted inhibition curve with a large enough effect; inconclusive = small, poorly fitted or top-dose-only effect; inactive = flat fitted curve, though single readings scatter. Only a sample is shown.
Log the outcome using a class from active, inactive

{"COMPOUND": "Cc1ncc([N+](=O)[O-])n1CCOC(=O)c1ccc(Br)cc1", "CLASSIFICATION": "inactive"}
{"COMPOUND": "Cc1nnc(SCC(=O)N2CCN(c3ccccc3)CC2)n1-c1ccccc1", "CLASSIFICATION": "inactive"}
{"COMPOUND": "O=C(Cn1cc2c(n1)CCCCC2)NCCN1CCOCC1", "CLASSIFICATION": "inactive"}

Ask: Could you check what this test reported for "O=C(CSc1ncnc2c1nnn2Cc1ccc(F)cc1)NC1CCCC1" ?
Reply: inactive

Ask: Could you check what this test reported for "COCc1cc(C)nc2sc3c(=O)n(-c4cccc5ccccc45)nnc3c12" ?
Reply: inactive

Ask: Could you check what this test reported for "COc1cc(/C=C/C2=CC(C)(C)NC(=S)N2)cc(OC)c1OC" ?
Reply: inactive

Ask: Could you check what this test reported for "O=c1[nH]c(NCCO)nnc1Cc1ccc(Cl)cc1" ?
Reply: inactive

Ask: Could you check what this test reported for "CCCCCN1CC(O)=C(c2nc(-c3ccc(Cl)cc3)cs2)C1=N" ?
Reply: inactive

Ask: Could you check what this test reported for "COc1ccc(Cc2nnc(N/N=C/c3ccccc3O)[nH]c2=O)cc1OC" ?
Reply: active

Ask: Could you check what this test reported for Cc1nnc(SCC(N)=O)n1CC1CCCO1 (stereo unspecified) ?
Reply: inactive

Ask: Could you check what this test reported for "Cc1nc2nc(C)c(CCC(=O)N3CCN(c4ccccc4)CC3)c(C)n2n1" ?
Reply: inactive

* * *

# PROTOCOL NOTES: qHTS for Inhibitors of human tyrosyl-DNA phosphodiesterase 1 (TDP1): qHTS in cells in absence of CPT; further: nearly all actives have a fitted effect of over 55% in size; further: potency means the concentration at half of the fitted maximal effect
# CONDITION SET: DT40 Tdp1-/- hTDP1 cells, no CPT, ATP luminescence, 48 h
Hit rate of the full screen: of about 420,000 compounds, about 64,000 (15%) were called active. Not shown: some 27% with an inconclusive outcome. Not all results are given here.
ENDPOINT LABEL: Potency

{"MOLECULE": "COc1ccccc1-n1c(SCC(=O)O)nc2sc3c(c2c1=O)CCC3", "EXPERIMENTAL RESULT": "inactive"}
{"MOLECULE": "CC(=O)c1ccc(Oc2cc(C)nc(-n3nc(C)cc3C)n2)cc1", "EXPERIMENTAL RESULT": "0.58 µM (active)"}
{"MOLECULE": "COc1ccc(/C=N/Nc2nc(-c3ccc(C)cc3)c(C#N)c(=O)[nH]2)cc1", "EXPERIMENTAL RESULT": "inactive"}
{"MOLECULE": "O=C(N/N=C/c1c[nH]c2ccccc12)c1cc2ccccc2o1", "EXPERIMENTAL RESULT": "14.6 µM (active)"}

Ask: Need Potency, item "CCn1c2ccccc2c2nnc(N3CCN(c4cc(C)ccc4C)CC3)nc21"
Reply: inactive

Ask: Need Potency, item "COc1ccc(OC)c(-n2c(-c3ccn[nH]3)n[nH]c2=S)c1"
Reply: inactive

Ask: Need Potency, item "COc1ccc(Nc2cc(C)nc(-n3nc(C)cc3C)n2)cc1"
Reply: 0.184 µM (active)

* * *

# PROTOCOL NOTES: qHTS for Inhibitors of human tyrosyl-DNA phosphodiesterase 1 (TDP1): qHTS in cells in absence of CPT; further: nearly all actives have a fitted effect of over 55% in size
# CONDITION SET: DT40 Tdp1-/- hTDP1 cells, no CPT, ATP luminescence, 48 h
The campaign covered roughly 420,000 compounds. About 64,000 (15%) were called active. About 27% were inconclusive and are not listed. Calls follow the shape of the dose curve; as a rule, active = well fitted inhibition curve with a large enough effect; inconclusive = small, poorly fitted or top-dose-only effect; inactive = flat fitted curve, though single readings scatter. Only a sample is shown.
Log the outcome using a class from label 1 = active, label 0 = inactive

{"COMPOUND": "CCC(C(=O)OCCN(CC)CC)c1ccccc1 (stereo unspecified)", "CLASSIFICATION": "label 0"}
{"COMPOUND": "Cc1ccc(-n2ncc3c(=O)n(Cc4cccc(C(F)(F)F)c4)cnc32)cc1C", "CLASSIFICATION": "label 0"}
{"COMPOUND": "CC(=O)Cn1cnc2c(cnn2-c2ccccc2)c1=O", "CLASSIFICATION": "label 0"}
{"COMPOUND": "COc1ccc(N/C=C(\\C2OC(=O)c3ccccc32)[N+](=O)[O-])cc1 (stereo unspecified)", "CLASSIFICATION": "label 1"}
{"COMPOUND": "COc1ccc(NC(=O)CCCN2C(=O)C(c3ccccc3)Oc3cccnc32)cc1 (stereo unspecified)", "CLASSIFICATION": "label 0"}

Now consider a different compound.
Ask: Could you check what this test reported for "CC(C)(C)n1ncc2c(=O)n(Cc3ccc(Cl)cc3)cnc21" ?
Reply: label 1
